- Test: Volume of distribution at steady state in Sprague-Dawley rat at 1 mg/kg, iv
- Format: ADME, organism-based
- Parameters: dose 1 mg/kg, route intravenous
- Details: in vivo, read-out: Vdss
For each entry below, report its Vd value.
Write the answer as a number in L/kg, unit excluded.

Challenge: Which Vd reading was recorded for the compound CC(C)(O)c1cc2nc(-c3cnc(N)nc3)nc(N3CCOCC3)c2s1 ?
Response given: 2.8

Challenge: Which Vd reading was recorded for the compound CS(=O)(=O)N1CCN(Cc2cc3nc(-c4cnc(N)nc4)nc(N4CCOCC4)c3s2)CC1 ?
Response given: 5.6

* * *

- Tested On: Phosphatidylinositol 4,5-bisphosphate 3-kinase catalytic subunit delta isoform (Homo sapiens, UniProt O00329)
- Sequence (O00329 whole entry, canonical isoform): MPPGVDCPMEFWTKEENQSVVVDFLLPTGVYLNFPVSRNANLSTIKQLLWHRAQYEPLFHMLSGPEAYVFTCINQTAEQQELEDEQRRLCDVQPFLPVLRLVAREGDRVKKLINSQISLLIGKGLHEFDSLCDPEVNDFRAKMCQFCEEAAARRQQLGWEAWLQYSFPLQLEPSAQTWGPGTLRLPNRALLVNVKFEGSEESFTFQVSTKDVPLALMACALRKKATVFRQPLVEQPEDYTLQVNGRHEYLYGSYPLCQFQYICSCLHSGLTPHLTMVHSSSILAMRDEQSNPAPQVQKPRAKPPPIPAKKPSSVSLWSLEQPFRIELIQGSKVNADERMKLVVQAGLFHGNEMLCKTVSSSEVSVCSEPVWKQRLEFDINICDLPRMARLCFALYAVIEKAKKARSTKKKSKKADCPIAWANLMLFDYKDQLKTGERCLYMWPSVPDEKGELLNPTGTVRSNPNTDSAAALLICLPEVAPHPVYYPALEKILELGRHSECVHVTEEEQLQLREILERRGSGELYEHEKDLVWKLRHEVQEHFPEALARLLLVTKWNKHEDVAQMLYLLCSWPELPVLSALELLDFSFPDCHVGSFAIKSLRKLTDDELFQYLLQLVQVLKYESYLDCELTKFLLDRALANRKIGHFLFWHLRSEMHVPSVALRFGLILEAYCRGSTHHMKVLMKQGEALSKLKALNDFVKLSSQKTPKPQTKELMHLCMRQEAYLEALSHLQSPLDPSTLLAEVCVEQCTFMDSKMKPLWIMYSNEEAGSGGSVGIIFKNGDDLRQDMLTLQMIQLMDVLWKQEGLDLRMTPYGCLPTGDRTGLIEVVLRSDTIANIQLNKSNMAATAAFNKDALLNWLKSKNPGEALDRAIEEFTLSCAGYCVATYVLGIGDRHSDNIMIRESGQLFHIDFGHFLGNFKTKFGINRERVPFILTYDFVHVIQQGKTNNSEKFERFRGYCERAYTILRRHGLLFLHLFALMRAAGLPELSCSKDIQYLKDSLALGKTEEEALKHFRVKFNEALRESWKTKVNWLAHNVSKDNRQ
Readout Name: IC50 (nM)
Write the answer as a number in nM, unit excluded.

Challenge: Which IC50 reading was recorded for the compound CS(=O)(=O)N1CCN(Cc2cc3nc(-c4ccc(N)cc4)nc(N4CCOCC4)c3s2)CC1 ?
Response given: 100

Challenge: Which IC50 reading was recorded for the compound CS(=O)(=O)N1CCN(Cc2cc3nc(-c4cnc(N)nc4)nc(N4CCOCC4)c3s2)CC1 ?
Response given: 2.4

Challenge: Which IC50 reading was recorded for the compound CS(=O)(=O)N1CCN(Cc2cc3nc(-c4cccc(CO)c4)nc(N4CCOCC4)c3s2)CC1 ?
Response given: 1.4
